TEST PROTOCOL: physchem
CONDITION PARAMETERS: buffer, pH 6
MEASURED QUANTITY: solubility (mg/mL)
// units = mg/mL; emit number, no label

{"columns": ["QUERY SMILES", "solubility [mg/mL]"],
 "data": [
  ["CCN(C(=O)CCCCCO[N+](=O)[O-])[C@H]1C[C@H](C)S(=O)(=O)c2sc(S(N)(=O)=O)cc21", 0.25]
]}

Now for a further compound.
Exercise: Could you share which solubility value was measured for CCN(C(=O)OCCCO[N+](=O)[O-])[C@H]1C[C@H](C)S(=O)(=O)c2sc(S(N)(=O)=O)cc21 ?
Solution: 15.1

----------
# pEC50 listing for each entry below
Organism: Oryctolagus cuniculus
TEST PROTOCOL: tissue or blood
CONDITION PARAMETERS: Aorta
Description: Vasorelaxant activity against methoxiamin-induced contraction in rabbit aortic ring
# reply with the number alone; pEC50 is -log10 of concentration in mol/L

Known results for molecules:
{"columns": ["MOLECULE", "REPORTED VALUE"],
 "data": [
  ["CCN(C(=O)OCCCO[N+](=O)[O-])[C@H]1C[C@H](C)S(=O)(=O)c2sc(S(N)(=O)=O)cc21", 5.69],
  ["O=[N+]([O-])O[C@@H]1CO[C@H]2[C@@H]1OC[C@@H]2O [ISOSORBIDE MONONITRATE]", 4.97],
  ["CCN(C(=O)CCCCCO[N+](=O)[O-])[C@H]1C[C@H](C)S(=O)(=O)c2sc(S(N)(=O)=O)cc21", 5.37]
]}

Now for a further molecule.
Exercise: Could you share which pEC50 value was measured for CCN(C(=O)OCC(CO[N+](=O)[O-])O[N+](=O)[O-])[C@H]1C[C@H](C)S(=O)(=O)c2sc(S(N)(=O)=O)cc21 (some centres undefined) ?
Solution: 6.43
